tested on: DeltatarO mutant; test: S. aureus survival, RN4220 and DeltatarO strains – OD600, teichoic acid synthesis inhibitors, primary screen (AID 463173); settings: S. aureus RN4220 wild type/DeltatarO growth, OD600, 18 h, hits give low values, screened at 18.75 µg/mL (by protocol)
About 4,300 (8.3%) of roughly 52,000 compounds were called active. Only a selection was taken, and actives are over-represented in it overall.
Consider the following molecules and their measured survival readings.
Your answer should be a plain number; it is taken to be in %.

Sample records with survival:
[
  {
    "Molecule": "Cc1ccc(NC(=O)NC(C)c2c(-n3cccc3)sc(C)c2C)cc1F (configuration not stated)",
    "Output unit": "%",
    "survival": 64
  },
  {
    "Molecule": "CCOC(=O)c1c(-c2ccccc2)oc2ccc(NS(=O)(=O)c3cc(C)c(C)cc3C)cc12",
    "Output unit": "%",
    "survival": 63
  },
  {
    "Molecule": "O=C(NCc1ccc2c(c1)OCO2)c1ccc2c(c1)N(Cc1cccc(Cl)c1)C(=O)c1ccccc1S2",
    "Output unit": "%",
    "survival": 84
  },
  {
    "Molecule": "CCOC(=O)c1ccc2c(c1)N(CC#N)C(=O)C(C)(C)O2",
    "Output unit": "%",
    "survival": 94
  }
]

Report survival for CCC(C)NC(=O)CSc1nc2cc3c(cc2c(=O)n1CCCCCC(=O)NCc1ccc(OC)cc1)OCO3 (configuration not stated) please.
76

Same thing, different molecule: CC(C)Oc1ccc(CNS(=O)(=O)c2csc(C(N)=O)c2)cc1
101
